Tested on: Escherichia coli TOP10;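 further: peptides expressed intracellularly from a pBAD plasmid library in pooled LB shake-flask culture, induced with 0.3% L-arabinose, DNA abundance read by NGS, three biological replicates, DESeq2 with apeglm shrinkage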
Experiment: shrunken log2 fold change of peptide-encoding DNA abundance (4.5 h post-induction vs induction); higher = less antimicrobial activity (less host growth inhibition)
Conditions: time post-induction: 4.5 h; library: site-saturation at positions 5, 18, 19, 20
Recorded shrunken log2 fold change for the following sequences
Readout kind: shrunken log2 fold change

>>> observed_value("RRIRARPPRLPRPRPRPVCYPRP")
-0.128
>>> observed_value("RRIRERPPRLPRPRPRPFHFPRP")
-0.787
>>> observed_value("RRIRKRPPRLPRPRPRPTSKPRP")
0.443
>>> observed_value("RRIRNRPPRLPRPRPRPTPHPRP")
0.284
>>> observed_value("RRIRARPPRLPRPRPRPQTTPRP")
0.768
>>> observed_value("RRIRRRPPRLPRPRPRPNPDPRP")
0.314
>>> observed_value("RRIRRRPPRLPRPRPRPAWKPRP")
0.2
>>> observed_value("RRIRARPPRLPRPRPRPQYCPRP")
-0.0903
>>> observed_value("RRIRLRPPRLPRPRPRPWWIPRP")
-0.107
>>> observed_value("RRIRERPPRLPRPRPRPFLIPRP")
-0.728

Reference source: the supplement of paper PMC9112550
